Endpoint: pIC50. System: Voltage-gated inwardly rectifying potassium channel KCNH2 (Homo sapiens, UniProt Q12809). Items follow.
Sequence (Q12809 whole entry): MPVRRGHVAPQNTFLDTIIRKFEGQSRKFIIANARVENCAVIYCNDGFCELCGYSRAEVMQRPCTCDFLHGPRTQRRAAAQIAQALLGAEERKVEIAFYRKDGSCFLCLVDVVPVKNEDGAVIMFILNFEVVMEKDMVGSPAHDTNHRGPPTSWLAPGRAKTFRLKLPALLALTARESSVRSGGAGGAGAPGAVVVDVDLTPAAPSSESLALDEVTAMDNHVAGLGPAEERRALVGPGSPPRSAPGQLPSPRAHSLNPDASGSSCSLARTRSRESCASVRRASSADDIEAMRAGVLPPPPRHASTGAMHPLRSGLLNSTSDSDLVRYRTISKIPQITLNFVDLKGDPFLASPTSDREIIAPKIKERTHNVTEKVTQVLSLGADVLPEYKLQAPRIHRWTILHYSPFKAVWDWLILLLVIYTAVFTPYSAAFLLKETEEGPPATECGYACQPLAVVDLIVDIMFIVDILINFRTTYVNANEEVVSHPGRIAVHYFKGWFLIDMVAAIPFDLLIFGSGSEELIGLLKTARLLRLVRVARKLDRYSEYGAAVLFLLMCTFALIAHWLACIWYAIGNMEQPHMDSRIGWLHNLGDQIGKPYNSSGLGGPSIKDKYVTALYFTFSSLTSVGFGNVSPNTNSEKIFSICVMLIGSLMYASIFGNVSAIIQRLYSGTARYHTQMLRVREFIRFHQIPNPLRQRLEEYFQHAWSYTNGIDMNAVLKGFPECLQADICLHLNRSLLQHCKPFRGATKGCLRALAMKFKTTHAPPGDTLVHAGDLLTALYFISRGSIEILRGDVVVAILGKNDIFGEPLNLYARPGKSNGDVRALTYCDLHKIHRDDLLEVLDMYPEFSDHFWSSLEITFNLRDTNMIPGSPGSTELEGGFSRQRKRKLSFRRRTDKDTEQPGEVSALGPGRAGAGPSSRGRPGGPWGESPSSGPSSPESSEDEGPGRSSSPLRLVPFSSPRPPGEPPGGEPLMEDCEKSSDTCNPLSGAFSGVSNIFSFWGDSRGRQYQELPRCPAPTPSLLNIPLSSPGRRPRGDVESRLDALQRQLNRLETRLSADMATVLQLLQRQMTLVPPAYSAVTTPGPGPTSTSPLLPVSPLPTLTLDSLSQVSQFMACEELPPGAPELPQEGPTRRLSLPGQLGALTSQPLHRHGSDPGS
# reply with the number alone; pIC50 is -log10 of concentration in mol/L

Param readout= pIC50; system= Voltage-gated inwardly rectifying potassium channel KCNH2 (Homo sapiens, UniProt Q12809); entry= O=C(Nc1ncc(Cl)s1)/C(=N/N1CCCC1)c1ccc(S(=O)(=O)C2CC2)cc1 ; returns value.
4.78

Also check O=C(Nc1nccs1)/C(=N/N1CCCC1)c1ccc(S(=O)(=O)C2CC2)cc1
4.76

* * *

Items are presented alongside their recorded IC50.
- EXPERIMENTAL_SYSTEM: Voltage-gated inwardly rectifying potassium channel KCNH2 (Homo sapiens)

I have this compound here, Cc1nnc(NC(=O)/C(=N/N2CCCC2)c2ccc(S(=O)(=O)C3CC3)cc2)s1 , and I need its recorded IC50.
> 100 µM

Moving on to CC(=O)N1CCN(Cc2cnc(NC(=O)/C(=N/N3CCCC3)c3ccc(S(=O)(=O)C4CC4)cc3)s2)CC1
> 100 µM

Now give it for Cc1cnc(NC(=O)/C(=N/N2CCCC2)c2ccc(S(=O)(=O)C3CC3)cc2)s1 too.
> 100 µM

Where do the numbers come from? From ChEMBL document CHEMBL4622891.
